Kd values for the binders below.
tgt: recombinant activated coagulation factor VII (FVIIa, AryoSeven) (UniProt P08709;P08709 61-212;213-466)
Sequence (P08709 61-212, chain 1 of 2): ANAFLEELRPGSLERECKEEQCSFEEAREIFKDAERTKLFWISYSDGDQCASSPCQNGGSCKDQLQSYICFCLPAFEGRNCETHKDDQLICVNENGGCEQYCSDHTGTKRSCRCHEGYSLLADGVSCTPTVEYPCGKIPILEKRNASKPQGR
Sequence (P08709 213-466, chain 2 of 2): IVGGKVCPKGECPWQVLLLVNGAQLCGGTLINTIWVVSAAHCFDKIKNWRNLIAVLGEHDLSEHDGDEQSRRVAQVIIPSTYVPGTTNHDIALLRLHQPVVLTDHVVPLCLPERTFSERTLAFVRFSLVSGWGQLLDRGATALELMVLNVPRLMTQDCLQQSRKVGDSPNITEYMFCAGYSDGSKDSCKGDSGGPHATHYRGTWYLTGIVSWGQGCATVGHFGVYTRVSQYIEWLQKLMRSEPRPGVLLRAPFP
protocol description: fluorescence intensity change (FAM), plate reader; 5 mM Ca2+, 5 mM Mg2+; 40 mM Tris, 117 mM NaCl, 5 mM CaCl2, 5 mM MgCl2, pH 7.4; 1 nM protein, aptamer 100 pM-10 uM; 4 C, 1 h; errors are SE
measurement parameters: copies: 1;1, single strand, predicted partly folded
Remember to follow the number with its unit.

[[record]]
binder = "CCGCACACCACGCGCATAATCCCGCGCACACGACTTGAAGTAGC (ssDNA) [Apt44]"
value_measured = "167 nM"


Kindly review the next binder as well.
// recorded Kd for Apt81 (ssDNA) DNA: GGGAGATAGCCACGACCTATGCAGCCAGCCGCAGTGTAAGTGAATGCAGACATGGTCTAAGTGTCCAGGCTGTGCGAAAGC : 938 nM
